B1: Caulobacter ParB omega fusion; a variant is named by its letters at X, in order, B8GW30 (parent)
chain: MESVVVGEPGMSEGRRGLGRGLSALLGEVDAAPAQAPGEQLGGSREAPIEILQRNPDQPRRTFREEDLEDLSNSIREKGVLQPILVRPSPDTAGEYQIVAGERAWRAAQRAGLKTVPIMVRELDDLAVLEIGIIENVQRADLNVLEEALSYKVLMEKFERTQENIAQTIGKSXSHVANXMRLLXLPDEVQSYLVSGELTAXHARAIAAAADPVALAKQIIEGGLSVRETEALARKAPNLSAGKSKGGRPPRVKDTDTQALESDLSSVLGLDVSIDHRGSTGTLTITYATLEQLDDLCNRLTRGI

# Variants of: B1
# test_details: one-hybrid fitness for binding parS DNA (scaled: cognate 1, non-cognate 0); higher = stronger binding
# condition_parameters: with parS DNA site
The full ranking holds about 81,000 sequences; the median of “one-hybrid fitness for binding parS DNA” is about -0.17, and the highest 2% start at about 0.51. Many of the other results were omitted from the sample, so the highest values are more common in it than they were.
one-hybrid fitness for binding parS DNA overview

These solved cases illustrate the format of a correct answer.
DRCA ≤ 0.2
SGQL ≤ 0.2
TARG ≤ 0.2
TNQC ≤ 0.2
RSRC 0.932

Using the record for `RRLA` , report its one-hybrid fitness for binding parS DNA.
0.815

// query one-hybrid fitness for binding parS DNA value for entry `RYEG`
0.901

Quick check: one-hybrid fitness for binding parS DNA of `RYEH` ?
≤ 0.2

Tell me the measured one-hybrid fitness for binding parS DNA of `YTPK` , please.
≤ 0.2

Look at this variant and give its reported one-hybrid fitness for binding parS DNA. `DRLA`
≤ 0.2

Can you share its one-hybrid fitness for binding parS DNA? I mean this variant: `RYEC`
0.926

Can you share its one-hybrid fitness for binding parS DNA? I mean this variant: `RFKH`
0.252

Please report the recorded one-hybrid fitness for binding parS DNA for `DRNA` .
≤ 0.2

Quick one: one-hybrid fitness for binding parS DNA of `RFVH` ?
≤ 0.2

# one-hybrid fitness for binding parS DNA lookup, item `RPDC`
≤ 0.2

# lookup: one-hybrid fitness for binding parS DNA of `RFVS`
0.892

What does the data say about its one-hybrid fitness for binding parS DNA? Entry: `NRCA`
≤ 0.2

Which measured one-hybrid fitness for binding parS DNA value corresponds to `RCDC` ?
0.877

one-hybrid fitness for binding parS DNA lookup needed for `RRCA` , thanks.
0.761
